The reported measurements were obtained from patent US20250162989A1.

Assay: Metabolic stability and intrinsic clearance in liver microsomes (rat)
Format: in vitro ADME
Details: 37° C.
PARAMETER: half-life at 1 μM

>>> result("COc1cc(NC(=O)[C@H](CC2CCOCC2)NC(=O)c2ccc(F)cc2)ccc1S(=O)(=O)NC1COC1")
"≥ 6 h"

* * *

Target: recombinant USP30 (amino acids 57-517 of the human sequence) (Homo sapiens (Human), UniProt Q70CQ3)
Sequence (Q70CQ3 57-517): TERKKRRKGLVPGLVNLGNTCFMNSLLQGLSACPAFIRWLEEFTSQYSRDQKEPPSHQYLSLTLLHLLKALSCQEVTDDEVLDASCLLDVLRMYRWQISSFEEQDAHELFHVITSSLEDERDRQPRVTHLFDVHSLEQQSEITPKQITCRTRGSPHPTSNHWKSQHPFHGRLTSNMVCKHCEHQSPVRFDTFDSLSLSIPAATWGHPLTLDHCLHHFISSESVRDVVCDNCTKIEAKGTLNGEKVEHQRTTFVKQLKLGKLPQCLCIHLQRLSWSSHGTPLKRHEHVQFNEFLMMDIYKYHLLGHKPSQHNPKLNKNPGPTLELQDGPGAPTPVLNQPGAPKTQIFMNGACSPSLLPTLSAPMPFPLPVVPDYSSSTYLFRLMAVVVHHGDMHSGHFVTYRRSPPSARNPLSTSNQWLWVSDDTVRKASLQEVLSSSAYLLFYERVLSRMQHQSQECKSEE
Assay: In vitro USP30 biochemical assay (Ubiquitin-Rhodamine substrate)
Conditions: 1.5 nM recombinant USP30, 25 nM Ubiquitin-Rhodamine, fluorescence
PARAMETER: IC50

>>> result("CC(C)(C)NS(=O)(=O)c1ccc(NC[C@H](O)[C@H](CC2CCNCC2)NC(=O)c2ccc(F)cc2)cc1 [Compound I-235]")
"1 to 10 µM"
>>> result("CC(C)(C)NS(=O)(=O)c1ccc(NC(=O)[C@H](Cc2ccccc2)NC(=O)N2CCOCC2)cc1 [Compound I-184]")
"1 to 10 µM"
>>> result("COC[C@H](NC(=O)c1ccc(F)cc1)C(=O)Nc1ccc(S(=O)(=O)NC(C)(C)CO)cc1 [Compound I-32]")
"1 to 10 µM"
>>> result("CN1CCC(C[C@H](NC(=O)c2ccc(F)cc2)C(=O)Nc2ccc(S(=O)(=O)NC(C)(C)CO)nc2)CC1 [Compound I-106]")
"0.05 to 1 µM"
>>> result("CC(C)(C)NS(=O)(=O)c1ccc(NC(=O)[C@H](CC2CCNCC2)NC(=O)c2ccc(F)nc2)cc1 [Compound I-186]")
"0.05 to 1 µM"
>>> result("CC(C)(NS(=O)(=O)c1ccc(NC(=O)[C@H](Cc2ccccn2)NC(=O)c2ccc(F)cc2)cc1)C(F)(F)F [Compound I-212]")
"0.05 to 1 µM"
>>> result("CC(C)(C)NS(=O)(=O)c1ccc(NC(=O)C2CC(C3CCCCC3)CN2C(=O)c2ccc(F)cc2)cc1 (stereo not shown) [Compound I-292]")
"0.05 to 1 µM"
